tested on: Fibroblast; test: Multiplex assay against human fibroblast; format: toxicity, cell-based; conditions: 48 h, 1 µM, compound concentration 1 uM, replicate 2
Parameter: Population Apoptotic (%). Scope: all listed entries.
Give the number first and the unit second.

Sample answers from the record:
                                   compound  result_value
0  Cc1cccc(CN2CCN(C(c3ccccc3)c3ccc(Cl)cc3)CC2)c1.Cl.Cl (configuration not stated)           87%
1  Cc1ccc(C)c(Oc2ccncc2C(=O)N2CCN(C3CC3)c3ccccc32)c1           50%
2  CCCSc1nc(N[C@@H]2C[C@H]2c2ccc(F)c(F)c2)c2nnn([C@@H]3C[C@H](OCCO)[C@@H](O)[C@H]3O)c2n1           66%
3  CC(C)OC(=O)N1CCC(Oc2ncnc3c2cnn3-c2ccc(S(C)(=O)=O)cc2F)CC1            0%

input: Return the recorded Population Apoptotic (%) value; entry: CN1CCN(Cc2ccc(Nc3ncc(Cl)c(Nc4ccccc4S(=O)(=O)N(C)C)n3)cc2)CC1
output: 66%

input: Return the recorded Population Apoptotic (%) value; entry: COc1ccc(-c2ccc3ncc4c(c3c2)n(-c2ccc(N3CCNCC3)c(C(F)(F)F)c2)c(=O)n4C)cn1.O=C(O)/C=C\C(=O)O
output: 62%

input: Return the recorded Population Apoptotic (%) value; entry: Cc1ccccc1C(c1ccccc1C)N1C2CCC1CC(O)(c1ccccc1)C2 (configuration not stated)
output: 0%

Reference source: ChEMBL document CHEMBL4689842
